B1: OR3A1 (parent)
chain: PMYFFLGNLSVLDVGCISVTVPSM

# Variants of: B1
# Measurement description: protein stability index of a GFP-peptide fusion (GPS, HEK-293T) (PSI 1-6); higher = more stable;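 further: lentivirally expressed fusions sorted by FACS into six bins by GFP to DsRed ratio, PSI derived from sequencing read proportions per bin multiplied by bin number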
# Measurement parameters: c terminus: a fixed tail appended

Variant designation: T20W
protein stability index: 2.62

Variant designation: V21D
protein stability index: 4.14

Variant designation: S10Y
protein stability index: 3.38

Variant designation: P1C
protein stability index: 2.46

Variant designation: V19C
protein stability index: 3.96
